The reported numbers originate from patent US20260297070A1.

measured_on: human Werner helicase (WRN-BV08, Uniprot Q14191, amino acids 517-1235 with L1074F point mutation) (Homo sapiens, UniProt Q14191, L1074F)
Construct: Uniprot Q14191, amino acids 517-1235 with L1074F point mutation; TEV-cleavable 8×His (C, cleaved yes); made in house; host or cells: Sf9 insect cells (baculovirus)
Sequence (Q14191 with tags, fused parts or gaps L1074F limits assumed): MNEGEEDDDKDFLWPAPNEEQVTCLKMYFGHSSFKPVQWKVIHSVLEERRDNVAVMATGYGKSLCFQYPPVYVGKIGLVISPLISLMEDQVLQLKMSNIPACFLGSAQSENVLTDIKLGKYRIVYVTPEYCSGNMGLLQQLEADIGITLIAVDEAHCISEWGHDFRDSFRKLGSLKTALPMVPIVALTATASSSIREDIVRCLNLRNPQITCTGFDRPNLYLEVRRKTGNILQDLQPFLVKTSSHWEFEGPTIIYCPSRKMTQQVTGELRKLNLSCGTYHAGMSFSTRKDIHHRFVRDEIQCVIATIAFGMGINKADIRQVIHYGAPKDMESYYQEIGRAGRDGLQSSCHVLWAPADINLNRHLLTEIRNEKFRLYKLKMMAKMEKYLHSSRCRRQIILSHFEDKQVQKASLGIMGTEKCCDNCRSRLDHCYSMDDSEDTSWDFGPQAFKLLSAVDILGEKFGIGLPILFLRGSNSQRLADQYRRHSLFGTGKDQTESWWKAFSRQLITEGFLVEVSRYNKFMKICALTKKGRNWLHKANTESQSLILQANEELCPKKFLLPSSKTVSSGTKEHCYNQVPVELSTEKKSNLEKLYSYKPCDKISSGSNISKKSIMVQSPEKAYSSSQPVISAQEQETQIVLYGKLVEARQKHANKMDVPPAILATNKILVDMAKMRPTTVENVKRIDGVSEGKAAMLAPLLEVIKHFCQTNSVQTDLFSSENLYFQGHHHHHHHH
procedure_details: WRN (BV08) ADP-Glo Assay
Assay type: biochemical
experimental_parameters: 0.15 nM WRN, 5 μM ATP, 0.1 nM DNA duplex, 15 min preincubation, 60 min at 25° C., pH 7.5, 1% DMSO; read-out: ADP-Glo_hWRN_IC50
pIC50: −log10 of the molar value.
measurement_name: pIC50

| molecule | measurement_name | reading |
| --- | --- | --- |
| CC(C)(O)c1cc(CN(C(=O)Cn2cc(-c3cc(F)c(F)c(F)c3)cn2)C2C=CS(=O)(=O)C2)ccn1 (single isomer, unassigned) | pIC50 | > 6.30 |
| COc1cc(CN(C(=O)C(c2ccc(-c3ccc(F)c(F)c3)cc2F)n2ccc(C)n2)[C@@H]2C=CS(=O)(=O)C2)ccn1 (single isomer, unassigned) [I-737] | pIC50 | > 6.30 |
| O=C(Cc1ccc(-c2cccc(F)c2)cc1)N(Cc1ccncc1)C1C=CS(=O)(=O)C1 (stereo not drawn) | pIC50 | 5.30 to 6.30 |
| CC(C)(O)c1cc(CN(C(=O)Cn2cc(-c3ccc(C(F)F)cc3)cn2)C2C=CS(=O)(=O)C2)ccn1 (single isomer, unassigned) | pIC50 | > 6.30 |
| C#CCCCC(=O)N1CCN(C(=O)c2ccc(CN(C(=O)Cc3ccc(-n4cccc4C)cc3F)C3C=CS(=O)(=O)C3)cc2)CC1 (stereo not drawn) | pIC50 | 5.30 to 6.30 |
| CS(=O)(=O)c1ccc(CN(C(=O)Cc2ccc(-n3cccc3)cc2)C2C=CS(=O)(=O)C2)cc1 (stereo not drawn) | pIC50 | 5.00 to 5.30 |

###

Readings of IC50 for the listed compounds
measured_on: human Werner helicase (WRN-BV08, Uniprot Q14191, amino acids 517-1235 with L1074F point mutation) (Homo sapiens, UniProt Q14191, L1074F)
Construct: Uniprot Q14191, amino acids 517-1235 with L1074F point mutation; TEV-cleavable 8×His (C, cleaved yes); made in house; host or cells: Sf9 insect cells (baculovirus)
procedure_details: WRN (BV08) ADP-Glo Assay
Type: biochemical
experimental_parameters: 0.15 nM WRN, 5 μM ATP, 0.1 nM DNA duplex, 15 min preincubation, 60 min at 25° C., pH 7.5, 1% DMSO; read-out: ADP-Glo_hWRN_IC50
measurement_name: IC50

| compound | reading |
| --- | --- |
| O=C(Cc1nc(C(F)(F)F)cs1)N(Cc1ccncc1)C1C=CS(=O)(=O)C1 (stereo not shown) | > 50 µM |
| CN(C)C(=O)C(C(=O)N(Cc1ccnc(C(C)(C)O)c1)C1C=CS(=O)(=O)C1)c1ccc(-c2ccc(F)cc2)cc1F (single isomer, unassigned) [I-258] | 5 to 10 µM |
| O=C(Cc1ccc(-n2cccc2)cc1)N(Cc1ccccc1Br)C1C=CS(=O)(=O)C1 (stereo not shown) | > 50 µM |
| Cc1cccn1-c1ccc(CC(=O)N(Cc2ccnc3c2CCC3(C)O)C2C=CS(=O)(=O)C2)c(F)c1 (stereo not shown) | < 0.5 µM |
| CN(C)C(=O)C(C(=O)N(Cc1nc(C2CC2)cs1)C1C=CS(=O)(=O)C1)c1ccc(S(F)(F)(F)(F)F)cc1 (stereo not shown) | 0.5 to 5 µM |
| COc1cc(CN(C(=O)Cc2ccc(-c3ccc(F)cc3)cn2)C2C=CS(=O)(=O)C2)ccn1 (stereo not shown) | 0.5 to 5 µM |
| CC(C)(O)c1cc(CN(C(=O)C2CCCc3c(-c4cc(F)c(F)c(F)c4)cnn32)[C@@H]2C=CS(=O)(=O)C2)ccn1 (single isomer, unassigned) | 0.5 to 5 µM |
| CN(CCc1ccncc1)C(=O)c1ccc(CN(C(=O)Cc2ccc(-c3ccc(F)c(F)c3)cc2F)C2C=CS(=O)(=O)C2)cc1 (stereo not shown) | 0.5 to 5 µM |
| O=C(Cc1ccc(-c2ccc(F)cc2C(F)F)cc1)N(Cc1ccncc1)C1C=CS(=O)(=O)C1 (stereo not shown) | 10 to 50 µM |
| O=C1Nc2ccccc2C1CCC(=O)N(Cc1ccncc1)C1C=CS(=O)(=O)C1 (stereo not shown) | > 50 µM |
| O=C(Cc1ccc(OCc2ccccc2)cc1)N(Cc1ccncc1)C1C=CS(=O)(=O)C1 (stereo not shown) | > 50 µM |
| CC(=O)NCC(C(=O)N(Cc1ccncc1)C1C=CS(=O)(=O)C1)c1ccc(-c2ccc(F)cc2)cc1 (stereo not shown) | > 50 µM |
| O=C(Cc1ccc(-n2cccc2)cc1)N(C1C=CS(=O)(=O)C1)[C@H]1CCOc2ccccc21 (stereo partly shown) | > 50 µM |
| O=C(Cn1cc(C2CCOC2)cn1)N(Cc1ccncc1)C1C=CS(=O)(=O)C1 (stereo not shown) | > 50 µM |
| CC(C)(O)c1cc(CN(C(=O)Cc2ccc(S(F)(F)(F)(F)F)cc2)[C@@H]2C=CS(=O)(=O)C2)ccn1 | < 0.5 µM |
| O=C(Cn1cc(-c2ccc(F)c(F)c2)cn1)N(Cc1ccnc(N2CCC2)c1)C1C=CS(=O)(=O)C1 (stereo not shown) | < 0.5 µM |
| O=C(Cc1ccc(-c2nn[nH]n2)cc1)N(Cc1ccncc1)C1C=CS(=O)(=O)C1 (stereo not shown) | > 50 µM |
| COc1cc(CN(C(=O)Cn2cc3cc(OC(F)(F)F)ccc3n2)[C@@H]2C=CS(=O)(=O)C2)ccn1 | 0.5 to 5 µM |
| CC(C)(O)c1cc(CN(C(=O)Cc2ccc(-c3ccc(F)cc3)cc2Cl)C2C=CS(=O)(=O)C2)ccn1 (stereo not shown) | 0.5 to 5 µM |
| O=C(Cn1ncc(-c2ccccc2)n1)N(Cc1ccncc1)C1C=CS(=O)(=O)C1 (stereo not shown) | 10 to 50 µM |
| COc1cc(CN(C(=O)Cc2ccc(-c3ccc(F)cn3)c(O)c2)C2C=CS(=O)(=O)C2)ccn1 (stereo not shown) | 5 to 10 µM |
| COc1cc(CN(C(=O)Cc2ccc(-c3ccc(F)c(F)c3)cc2F)C2C=CS(=O)(=O)C2)ccn1 (single isomer, unassigned) [I-400] | > 50 µM |
| CCOC(C(=O)N(Cc1ccnc(OC)c1)C1C=CS(=O)(=O)C1)c1ccc(-c2ccc(F)cc2)cc1 (stereo not shown) | 0.5 to 5 µM |
| O=C(Cc1ccc(-n2cccc2)cc1)N(Cc1ccnc2[nH]cnc12)C1C=CS(=O)(=O)C1 (stereo not shown) | > 50 µM |
| O=C(N(Cc1ccncc1)C1C=CS(=O)(=O)C1)C12CC(c3cccc(C(F)(F)F)c3)(C1)C2F (stereo not shown) | > 50 µM |
| Cc1cnn(CC(=O)N(Cc2ccncc2)C2C=CS(=O)(=O)C2)c1 (stereo not shown) | > 50 µM |
| N#CC1=CC(N(Cc2ccccc2)C(=O)Cc2ccc(-c3ccc(F)cc3)cc2)CS1(=O)=O (stereo not shown) | 0.5 to 5 µM |
| CN(C)C(=O)C(C(=O)N(Cc1ccnc(C(C)(C)O)c1)C1C=CS(=O)(=O)C1)c1ccc(-c2ccc(F)cc2)cc1 (single isomer, unassigned) [I-8] | < 0.5 µM |
| COC(C(=O)N(Cc1nc(C2CC2)cs1)C1C=CS(=O)(=O)C1)c1ccc(-c2ccc(F)c(F)c2)cc1F (stereo not shown) | < 0.5 µM |
| CC(C)(O)c1cc(CN(C(=O)Cc2ccc(-c3cc(F)c(F)c(F)c3)cc2F)C2C=CS(=O)(=O)C2)ccn1 (stereo not shown) | < 0.5 µM |
| O=C(Cc1ccc2ccccc2c1)N(Cc1ccncc1)C1C=CS(=O)(=O)C1 (stereo not shown) | 10 to 50 µM |
